Reported pEC50 values follow for various molecules
# Assayed Target: Piezo1 channel (Homo sapiens)
# Construct: endogenous in cells
# Sequence (Q92508 whole entry): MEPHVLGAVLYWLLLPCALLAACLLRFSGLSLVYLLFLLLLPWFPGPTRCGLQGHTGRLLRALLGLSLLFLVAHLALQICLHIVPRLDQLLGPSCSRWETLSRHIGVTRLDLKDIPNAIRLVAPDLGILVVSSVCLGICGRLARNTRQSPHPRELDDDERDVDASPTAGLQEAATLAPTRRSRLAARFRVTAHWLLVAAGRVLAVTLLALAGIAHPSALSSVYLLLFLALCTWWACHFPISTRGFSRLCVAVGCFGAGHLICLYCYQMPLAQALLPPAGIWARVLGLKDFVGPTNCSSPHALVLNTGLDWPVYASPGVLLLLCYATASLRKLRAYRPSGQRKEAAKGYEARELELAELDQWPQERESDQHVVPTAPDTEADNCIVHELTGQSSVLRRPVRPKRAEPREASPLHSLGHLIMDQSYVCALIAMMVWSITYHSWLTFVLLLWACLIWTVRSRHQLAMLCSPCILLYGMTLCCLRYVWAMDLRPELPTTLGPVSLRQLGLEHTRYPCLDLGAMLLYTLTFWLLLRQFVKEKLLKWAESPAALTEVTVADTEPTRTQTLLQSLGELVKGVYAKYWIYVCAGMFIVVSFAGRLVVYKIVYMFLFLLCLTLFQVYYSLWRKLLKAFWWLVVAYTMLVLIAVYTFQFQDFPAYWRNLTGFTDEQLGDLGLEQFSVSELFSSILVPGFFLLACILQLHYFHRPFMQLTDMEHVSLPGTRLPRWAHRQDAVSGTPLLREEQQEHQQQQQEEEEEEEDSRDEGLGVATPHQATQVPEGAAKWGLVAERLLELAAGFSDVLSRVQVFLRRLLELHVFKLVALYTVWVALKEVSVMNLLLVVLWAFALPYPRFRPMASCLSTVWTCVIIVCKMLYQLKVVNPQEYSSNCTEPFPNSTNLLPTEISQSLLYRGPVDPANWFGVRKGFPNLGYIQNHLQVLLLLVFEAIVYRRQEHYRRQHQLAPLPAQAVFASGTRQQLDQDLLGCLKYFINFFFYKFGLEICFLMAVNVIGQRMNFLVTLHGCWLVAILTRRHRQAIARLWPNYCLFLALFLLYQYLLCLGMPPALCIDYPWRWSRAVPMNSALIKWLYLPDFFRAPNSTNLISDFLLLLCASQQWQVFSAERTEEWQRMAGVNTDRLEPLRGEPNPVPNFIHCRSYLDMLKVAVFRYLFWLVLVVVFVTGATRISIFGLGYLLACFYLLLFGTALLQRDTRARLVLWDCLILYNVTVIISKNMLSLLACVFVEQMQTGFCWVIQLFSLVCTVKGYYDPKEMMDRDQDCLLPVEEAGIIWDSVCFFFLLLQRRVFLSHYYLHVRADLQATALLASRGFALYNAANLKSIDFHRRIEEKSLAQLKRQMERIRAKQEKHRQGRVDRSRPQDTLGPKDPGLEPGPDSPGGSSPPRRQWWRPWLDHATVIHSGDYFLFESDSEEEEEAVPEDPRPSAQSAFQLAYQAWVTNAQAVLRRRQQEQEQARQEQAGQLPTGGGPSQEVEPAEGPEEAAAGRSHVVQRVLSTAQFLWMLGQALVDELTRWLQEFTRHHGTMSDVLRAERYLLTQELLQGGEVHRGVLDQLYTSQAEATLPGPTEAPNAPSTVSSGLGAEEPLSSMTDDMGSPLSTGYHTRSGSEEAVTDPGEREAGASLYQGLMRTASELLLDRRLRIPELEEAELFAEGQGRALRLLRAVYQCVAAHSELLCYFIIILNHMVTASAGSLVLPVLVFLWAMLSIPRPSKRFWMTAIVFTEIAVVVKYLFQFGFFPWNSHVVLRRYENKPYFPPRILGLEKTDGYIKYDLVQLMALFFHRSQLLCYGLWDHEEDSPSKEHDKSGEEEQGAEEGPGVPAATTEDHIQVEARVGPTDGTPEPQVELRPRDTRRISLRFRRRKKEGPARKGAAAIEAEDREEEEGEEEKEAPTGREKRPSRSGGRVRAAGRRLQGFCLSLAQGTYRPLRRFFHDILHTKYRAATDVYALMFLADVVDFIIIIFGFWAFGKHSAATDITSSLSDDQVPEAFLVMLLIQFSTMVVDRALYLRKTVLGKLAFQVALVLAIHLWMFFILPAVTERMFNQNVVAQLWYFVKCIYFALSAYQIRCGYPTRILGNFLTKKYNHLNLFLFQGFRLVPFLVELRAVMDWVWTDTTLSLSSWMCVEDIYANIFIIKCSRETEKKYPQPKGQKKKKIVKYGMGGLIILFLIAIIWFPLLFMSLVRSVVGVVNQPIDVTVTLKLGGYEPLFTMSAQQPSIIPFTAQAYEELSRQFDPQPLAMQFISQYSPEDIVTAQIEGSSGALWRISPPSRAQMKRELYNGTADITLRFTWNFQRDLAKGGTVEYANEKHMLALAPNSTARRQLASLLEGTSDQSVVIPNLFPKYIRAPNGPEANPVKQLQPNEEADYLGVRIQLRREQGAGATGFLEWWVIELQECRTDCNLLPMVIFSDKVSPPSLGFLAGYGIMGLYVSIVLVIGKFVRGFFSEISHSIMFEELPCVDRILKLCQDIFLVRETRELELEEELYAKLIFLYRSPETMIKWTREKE
# Assay Overview: Automated whole-cell patch clamp (SyncroPatch 384) of Piezo1-mediated currents in RBCs
# Setup Conditions: human RBCs, responders only, current at +80 mV normalised to baseline, cumulative concentrations, Hill fit, room temperature
pEC50: −log10 of the molar value.
Readout Label: pEC50

molecule="Clc1cccc(Cl)c1CSc1nnc(-c2cnccn2)s1 [Yoda1]" value_measured=5.86
molecule="O=C(O)c1ccc(-c2nnc(SCc3c(Cl)cccc3Cl)s2)cc1 [Yoda2]" value_measured=6.52

====

# Test system: membrane potential of RBCs (Gárdos channel activity)
# Assay Overview: Membrane potential measurement (MBE method), hyperpolarisation by Gárdos channel activity
# Type: cell-based, human
# Setup Conditions: magnitude of membrane hyperpolarisation ΔVm, Hill fit
Readout Label: EC50 (nM)

sample_smiles=O=C(O)c1ccc(-c2nnc(SCc3c(Cl)cccc3Cl)s2)cc1 unit_info=nM value_measured=465
sample_smiles=Clc1cccc(Cl)c1CSc1nnc(-c2cnccn2)s1 unit_info=nM value_measured=305
